experiment: Pharmacokinetics / TDM of CMS and colistin in patient plasma; type: in vivo, human; settings: human, in vivo, iv; patients on CMS infusion (300 mg CBA loading, 150 mg CBA maintenance), fourth dose; plasma, SPE LC-MS/MS; DAS 2.0; mean ± SD of 3 patients; SD; read-out: t1/2 (elimination half-life) (converted)
Where a SMILES comes first, the peptide text is derived from it. Bridges are numbered along the chain shown (N, C = ends). [ ]: non-standard residue; d: D form. The star is where a group is joined. X1 = CC[C@H](C)CCCCC(=O)*; Dab = NCC[C@H](N)C(=O)O
experimental endpoint: half-life

Task: For the compound shown here, CC[C@H](C)CCCCC(=O)N[C@@H](CCN)C(=O)N[C@H](C(=O)N[C@@H](CCN)C(=O)N[C@H]1CCNC(=O)[C@H]([C@@H](C)O)NC(=O)[C@H](CCN)NC(=O)[C@H](CCN)NC(=O)[C@H](CC(C)C)NC(=O)[C@@H](CC(C)C)NC(=O)[C@H](CCN)NC1=O)[C@@H](C)O [Colistin, colistin] (X1-[Dab]T[Dab][Dab][Dab][dL]L[Dab][Dab]T; lactam 4-C) , give the reported half-life.
Result: 9.94 h
